# measurement_target: PK (Homo sapiens, UniProt P03952)
# Sequence (P03952 20-638): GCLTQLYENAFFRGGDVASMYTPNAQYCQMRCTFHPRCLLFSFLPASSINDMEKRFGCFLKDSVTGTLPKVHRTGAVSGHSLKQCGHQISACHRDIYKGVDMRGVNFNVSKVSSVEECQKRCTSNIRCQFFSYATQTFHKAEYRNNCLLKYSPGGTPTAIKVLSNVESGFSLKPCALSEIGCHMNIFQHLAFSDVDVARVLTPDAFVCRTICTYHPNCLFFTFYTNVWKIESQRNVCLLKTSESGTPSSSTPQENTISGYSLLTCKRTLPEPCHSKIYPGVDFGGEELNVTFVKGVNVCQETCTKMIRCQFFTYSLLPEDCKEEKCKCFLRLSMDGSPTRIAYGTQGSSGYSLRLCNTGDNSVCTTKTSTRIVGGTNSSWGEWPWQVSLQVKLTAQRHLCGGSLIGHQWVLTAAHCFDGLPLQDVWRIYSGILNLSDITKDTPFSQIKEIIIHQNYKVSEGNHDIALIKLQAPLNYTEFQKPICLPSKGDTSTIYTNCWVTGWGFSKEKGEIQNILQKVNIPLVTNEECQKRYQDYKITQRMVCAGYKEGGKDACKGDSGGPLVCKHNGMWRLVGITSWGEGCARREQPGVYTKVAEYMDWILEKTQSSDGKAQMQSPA
Structures can show the parent of a compound that is named as a salt.
property_label: Ki (µM)
I only need the number, in µM, no unit after it.

query: Name the reported Ki value associated with the compound N=C(N)Nc1ccc(CNC(=O)[C@H](CCc2ccccc2)NC(=O)C(CO)NS(=O)(=O)Cc2ccccc2)cc1 (some centres unmarked) [WX-550, hydrochloride]
result: 268

query: Name the reported Ki value associated with the compound C[C@H](NC(=O)C(CO)NS(=O)(=O)Cc1ccccc1)C(=O)NCc1ccc(NC(=N)N)cc1 (some centres unmarked) [WX-532, hydrochloride]
result: 49

query: Name the reported Ki value associated with the compound N=C(N)Nc1ccc(CNC(=O)CNC(=O)C(CO)NS(=O)(=O)Cc2ccc(Cl)cc2)cc1 (centres unmarked) [WX-C340, hydrochloride]
result: 216

query: Name the reported Ki value associated with the compound `C[C@@H](C(=O)NCc1ccc(NC(=N)N)cc1)N(C)C(=O)[C@@H](CO)NS(=O)(=O)Cc1ccc(Cl)cc1`
result: 58

query: Name the reported Ki value associated with the compound N=C(N)Nc1ccc(CNC(=O)CNC(=O)C(CO)NS(=O)(=O)Cc2cccc(Cl)c2)cc1 (centres unmarked) [WX-C318, hydrochloride]
result: 176

query: Name the reported Ki value associated with the compound N=C(N)Nc1ccc(CNC(=O)CNC(=O)C(CO)NS(=O)(=O)Cc2cccc([N+](=O)[O-])c2)cc1 (centres unmarked) [WX-C316, hydrochloride]
result: 875

query: Name the reported Ki value associated with the compound CN(CC(=O)NCc1ccc(NC(=N)N)cc1)C(=O)C(CO)NS(=O)(=O)Cc1ccccc1 (centres unmarked)
result: 109

query: Name the reported Ki value associated with the compound N=C(N)Nc1ccc(CNC(=O)CNC(=O)[C@@H](CO)NS(=O)(=O)Cc2ccccc2)cc1 [WX-508, hydrochloride]
result: 180
